System: Wheat Powdery Mildew (Blumeria [Erysiphe] graminis f.sp. tritici); further: key: '+++' =high control; '++' =moderate control; '+' =low control; '0'=no control
Conditions: in vivo
MEASURED_METRIC: Level of Plant Disease Control, Wheat Powdery Mildew

Worked examples, 5 compounds total:
| COMPOUND | VALUE_MEASURED |
| --- | --- |
| COc1cc(C)c(C(=O)c2c(Cl)cccc2OC)c(OCc2cccc(C)c2)c1OC [I] | +++ |
| COc1cc(C)c(C(=O)c2c(C)cccc2C)c(OCc2ccccc2)c1OC [O] | +++ |
| COc1cc(C)c(C(=O)c2c(C)ccc3ccccc23)c(OC)c1OC [F] | +++ |
| COc1cc(C)c(C(=O)c2c(C)ccc(Cl)c2C)c(OC)c1OC [Q] | +++ |
| COc1cc(C)c(C(=O)c2c(C)cccc2C)c(OCc2cccc(C)c2)c1OC [Compound E] | +++ |

Given CCCCOc1c(OC)cc(C)c(C(=O)c2c(Cl)cccc2Cl)c1OCCCC [B] , state its recorded Level of Plant Disease Control, Wheat Powdery Mildew.
+++

Given COc1cc(C)c(C(=O)c2c(C)cccc2OC)c(OC)c1OC [G] , state its recorded Level of Plant Disease Control, Wheat Powdery Mildew.
+++

Given COc1cc(C)c(C(=O)c2c(OC)ccc(Br)c2Cl)c(OC)c1OC [J] , state its recorded Level of Plant Disease Control, Wheat Powdery Mildew.
+++

Given CCC(=O)Oc1c(OC)c(OC)cc(C)c1C(=O)c1c(Cl)cccc1Cl [W] , state its recorded Level of Plant Disease Control, Wheat Powdery Mildew.
+++

Given COc1cc(C)c(C(=O)c2c(C)ccc3ccccc23)c(OCc2ccccc2F)c1OC [X] , state its recorded Level of Plant Disease Control, Wheat Powdery Mildew.
+++
